measured property: melting point

# count of solved cases: 8
>  <compound>
CCc1ccc(C(=O)Nc2ccccc2)cc1[N+](=O)[O-]

>  <test value>
111 to 113 °C

$$$$
>  <compound>
Cn1cc(Br)nc(Nc2ccc(C(=O)N3CCOCC3)cc2)c1=O

>  <test value>
276 to 277 °C

$$$$
>  <compound>
CCCc1c(OCCCCCCc2ccccc2CCC(=O)O)ccc2c1OCCC2=O

>  <test value>
98 to 99 °C

$$$$
>  <compound>
COCCc1nc2c(N)nc3ccccc3c2n1CCOCCN(C)C(=O)C1CCCCC1

>  <test value>
52 to 57 °C

$$$$
>  <compound>
O=C(CC(CC1CCCCC1)(C(=O)O)C(=O)O)c1ccco1

>  <test value>
127 to 130 °C

$$$$
>  <compound>
CC(=O)N1CS(=O)c2c1cc(C)cc2[N+](=O)[O-] (stereo not given)

>  <test value>
141 °C

$$$$
>  <compound>
CCCCCCCCCOc1cc([N+](=O)[O-])ccc1N

>  <test value>
74 to 75 °C

$$$$
>  <compound>
CN(C)C(=O)c1ccccc1Sc1ccc(Cl)cc1C=O

>  <test value>
87 to 88 °C

$$$$

Ask: Fill in: melting point of CCOc1c(N2CCNCC2)c(F)cc2c(=O)c(C(=O)O)cn(C3CC3)c12 is ___
Reply: 119 to 122 °C

Ask: // next record CCS(=O)(=O)NC(=O)N1CC1C#N (stereo not given)
Reply: 70 to 73 °C

----------
melting point values by entry

>  <smiles code>
Cc1c(C(=O)Nc2ccc(N3CCC(O)CC3)c(C#N)c2)cnn1-c1ccc(F)cc1

>  <test value>
215 to 216 °C

$$$$
>  <smiles code>
O=C1NCCC[C@@H]1NS(=O)(=O)c1ccc(F)c(F)c1

>  <test value>
153 to 155 °C

$$$$
>  <smiles code>
CCCCc1nc2c(N)nc3ccccc3c2n1CCS(C)(=O)=O

>  <test value>
226 to 228 °C

$$$$

Ask: Fill in: melting point of Cc1ccc(COc2ncc(F)c(NS(=O)(=O)c3ccc(C)cc3)n2)cc1 is ___
Reply: 120 to 122 °C

Ask: // next record O=C(c1ccc(Br)cc1)N(C1CCCCC1)C1CCCC1
Reply: 110 to 112 °C

Ask: // next record CCC(CC)c1ccc(Cl)c2nc3n(c12)CCCCN3c1ncc([N+](=O)[O-])cc1C
Reply: 204 to 205 °C

Ask: // next record O=C(O)c1ccccc1C(=O)c1ccc(F)cc1F
Reply: 129 to 131 °C

Ask: // next record ON=Cc1ccc(-c2ccc(O)c(F)c2)c2ccccc12
Reply: 187 to 188 °C

Ask: // next record CNN(NC)C(=O)Nc1cccc2c1C(=O)c1c-2n[nH]c1-c1ccc(OC)cc1
Reply: > 300 °C

----------
melting point values by entry

>  <compound>
CCOC(=O)c1cc2c(cn1)[nH]c1cccc(Oc3ccc([N+](=O)[O-])cn3)c12

>  <melting point>
298 to 300 °C

$$$$
>  <compound>
C[C@@H]1CN(c2cccc(-c3cn[nH]c3N)c2)C[C@H](C)O1

>  <melting point>
158 to 160 °C

$$$$
>  <compound>
COc1ccc(C2=NN(Cc3ccc([N+](=O)[O-])cc3)C(=O)CC2)cc1OC

>  <melting point>
126 °C

$$$$
>  <compound>
Cc1cc(C(C)(C)C)c(O[Si](C)(C)N=C=S)c(C(C)(C)C)c1

>  <melting point>
83 to 84 °C

$$$$
>  <compound>
CN1CCC(N(C)c2ncc3ncnc(Nc4cccc([N+](=O)[O-])c4)c3n2)CC1

>  <melting point>
199 to 203 °C

$$$$
>  <compound>
Cc1cnc2c(c1)n(C(C)C)c(=O)n2-c1ccc(Oc2nc3cccnc3n2C)cc1

>  <melting point>
252 °C

$$$$
>  <compound>
COc1ccc([N+](=O)[O-])c(NC(=O)OC(C)(C)C)c1

>  <melting point>
112 to 114 °C

$$$$
>  <compound>
CCC1CCCCN1C(=O)C=Cc1c(-c2ccncc2)nn2ccccc12 (centres undefined)

>  <melting point>
150 to 153 °C

$$$$
>  <compound>
CCCCc1nn2cccc(C(=O)OC)c2c1Cc1ccc(Br)cc1

>  <melting point>
80 to 85 °C

$$$$
>  <compound>
O=C(c1ccccc1)c1cnn2c(-c3cccc(N4CCCCC4=O)c3)ccnc12

>  <melting point>
160 to 162 °C

$$$$

Ask: Fill in: melting point of CC(C)(C)OC(=O)NCC1Cc2ccc(OCc3ccccc3)cc2C1 (centres undefined) is ___
Reply: 95 to 98 °C

Ask: // next record CCCC(=O)c1ccc(OCC(=O)OC)cc1
Reply: 78 to 82 °C

Ask: // next record c1cc2c(s1)CCCCN2
Reply: 55 to 57 °C

Ask: // next record COc1ccc(CC(=O)O)c(C(C)=O)c1
Reply: 115 to 116 °C

Ask: // next record O=[N+]([O-])c1ccc2c(c1)Sc1cc(Br)ccc1N2
Reply: > 250 °C

Ask: // next record O=C1C(=CO)c2ccccc2N1c1ccccc1
Reply: 192 to 195 °C

Ask: // next record COC(=O)C1(NC(=O)Cc2cc(-c3ccc(Cl)cc3)ccc2C)CCCC(C(F)(F)F)C1 (centres undefined)
Reply: 149 °C
